For each entry below, report its AUC(0-t) value.
# ASSAY_NAME: Rat PK
# Format: in vivo
# SETUP_CONDITIONS: po, male SD rats, 5 mg/kg p.o., suspended in 0.5% methylcellulose in water, plasma
One number for each entry, in ng·h/mL.

Use the examples below as a reference point.
{"COMPOUND": "CS(C)(=O)=NCCNc1nonc1/C(=N/O)Nc1ccc(F)c(Br)c1 [Example 1]", "AUC(0-t) (ng·h/mL)": 3840}
{"COMPOUND": "NS(=O)(=O)NCCNc1nonc1C(=NO)Nc1ccc(F)c(Br)c1 [Reference Compound 1, reference compound]", "AUC(0-t) (ng·h/mL)": 880}
{"COMPOUND": "CS(C)(=O)=NCCNc1nonc1/C(=N/O)Nc1ccc(F)c(Cl)c1 [Example 28]", "AUC(0-t) (ng·h/mL)": 1100}

What the record says about CCS(=N)(=O)NCCNc1nonc1C(=NO)Nc1ccc(F)c(Br)c1 (stereo not shown) [Example 7] : AUC(0-t) is 1440

###

# TEST_SYSTEM: IDO (Homo sapiens)
# Construct: endogenous in cells; host or cells: HeLa cells stimulated with recombinant human interferon-gamma
# ASSAY_NAME: IDO Cell-Based NEK Green Assay (NFK Green, N-formyl kynurenine level)
# SETUP_CONDITIONS: Hela cells, 1 mM L-Tryptophan, 100 ng/mL recombinant human interferon-gamma, 2 days, NFK Green fluorescence
For each entry below, report its IC50 value.
Give bare numbers, in µM.

{"MOLECULE": "CS(C)(=O)=NCCCNc1nonc1/C(=N/O)Nc1ccc(F)c(Br)c1", "IC50 / µM": 0.0636}

Working through the 6 molecules below one at a time, give IC50 for each.
1. CS(C)(=O)=NCCNc1nonc1/C(=N/O)Nc1ccc(F)c(Cl)c1
2. C#Cc1cc(N/C(=N\O)c2nonc2NCCS(=N)(=N)CC)ccc1F
3. CCS(=N)(=N)CCCNc1nonc1/C(=N/O)Nc1ccc(F)c(Br)c1
4. CCS(=N)(=O)NCCCNc1nonc1/C(=N/O)Nc1ccc(F)c(Br)c1 (stereo not drawn)
5. N=S(=N)(CCO)CCNc1nonc1/C(=N/O)Nc1ccc(F)c(Br)c1
6. CS(=N)(=O)NCCCNc1nonc1/C(=N/O)Nc1ccc(F)c(Cl)c1 (stereo not drawn)

Ans.
1. 0.0145
2. 0.0735
3. 0.0205
4. 0.0082
5. 0.0391
6. 0.014

###

# TEST_SYSTEM: IDO (Homo sapiens)
# Construct: endogenous in cells; host or cells: HeLa cells stimulated with recombinant human interferon-gamma
# ASSAY_NAME: IDO Cell-Based NEK Green Assay (NFK Green, N-formyl kynurenine level)
# SETUP_CONDITIONS: Hela cells, 1 mM L-Tryptophan, 100 ng/mL recombinant human interferon-gamma, 2 days, NFK Green fluorescence
ASSAY_READOUT: pIC50
Answers are plain numbers, as −log10 of the molar value.

Use the examples below as a reference point.
{"COMPOUND": "CCS(=N)(=O)NCCNc1nonc1/C(=N/O)Nc1ccc(F)c(Cl)c1 (stereo not drawn)", "ASSAY_READOUT": "pIC50", "OBS_VALUE": 7.76}
{"COMPOUND": "CCS(=O)(=NC)NCCNc1nonc1/C(=N/O)Nc1ccc(F)c(Br)c1 (stereo not drawn)", "ASSAY_READOUT": "pIC50", "OBS_VALUE": 7.62}
{"COMPOUND": "CC(C)S(=N)(=N)CCNc1nonc1/C(=N/O)Nc1ccc(F)c(Br)c1", "ASSAY_READOUT": "pIC50", "OBS_VALUE": 7.88}
{"COMPOUND": "CCS(=O)(=NC)NCCNc1nonc1/C(=N/O)Nc1ccc(F)c(Cl)c1 (stereo not drawn)", "ASSAY_READOUT": "pIC50", "OBS_VALUE": 7.48}
{"COMPOUND": "C#Cc1cc(N/C(=N\\O)c2nonc2NCCS(C)(=N)=N)ccc1F", "ASSAY_READOUT": "pIC50", "OBS_VALUE": 6.62}

Working through the 4 compounds below one at a time, give pIC50 for each.
1. CCS(=N)(=N)CCNc1nonc1/C(=N/O)Nc1ccc(F)c(Br)c1
2. O=S1(=NCCCNc2nonc2/C(=N/O)Nc2ccc(F)c(Cl)c2)CCC1
3. CS(=N)(=N)CCNc1nonc1/C(=N/O)Nc1ccc(F)c(Cl)c1
4. COCCS(=N)(=N)CCNc1nonc1/C(=N/O)Nc1ccc(F)c(Br)c1

Ans.
1. 8.01
2. 7.19
3. 7.47
4. 7.68

###

For each entry below, report its half-life value.
# ASSAY_NAME: Rat PK
# Type: in vivo
# SETUP_CONDITIONS: po, male SD rats, 5 mg/kg p.o., suspended in 0.5% methylcellulose in water, plasma
Note: state the figure and append the unit.

Use the examples below as a reference point.
{"COMPOUND": "NS(=O)(=O)NCCNc1nonc1C(=NO)Nc1ccc(F)c(Br)c1 [Reference Compound 1, reference compound]", "ASSAY_READOUT": "half-life", "OBS_VALUE": "2.48 h"}
{"COMPOUND": "CCS(=N)(=O)NCCNc1nonc1C(=NO)Nc1ccc(F)c(Br)c1 (stereo not shown)", "ASSAY_READOUT": "half-life", "OBS_VALUE": "3.47 h"}
{"COMPOUND": "CS(C)(=O)=NCCNc1nonc1/C(=N/O)Nc1ccc(F)c(Cl)c1", "ASSAY_READOUT": "half-life", "OBS_VALUE": "1.19 h"}

Note: attention shifts to another entry.
What the record says about `CS(C)(=O)=NCCNc1nonc1/C(=N/O)Nc1ccc(F)c(Br)c1` : half-life is 3.83 h

###

# ASSAY_NAME: Rat PK
# Format: in vivo
# SETUP_CONDITIONS: po, male SD rats, 5 mg/kg p.o., suspended in 0.5% methylcellulose in water, plasma
# Method: Each test compounds was suspended in 0.5% methylcellulose in water. Grouping male SD rats was administered with test compound at a dose of 5 mg/kg by oral. […] Standard curve was plotted based on concentrations of the samples in a suitable range, and the concentration of test compounds in plasma samples were determined by using LC-MS/MS. Pharmacokinetic parameters were calculated according to plasma concentration-time curve by Phoenix WinNonLin 6.1 software.
ASSAY_READOUT: Cmax (ng/mL)
Answers are plain numbers, in ng/mL.

Use the examples below as a reference point.
{"COMPOUND": "CS(C)(=O)=NCCNc1nonc1/C(=N/O)Nc1ccc(F)c(Cl)c1 [Example 28]", "ENDPOINT_UNIT": "ng/mL", "OBS_VALUE": 469}
{"COMPOUND": "NS(=O)(=O)NCCNc1nonc1C(=NO)Nc1ccc(F)c(Br)c1 [Reference Compound 1, reference compound]", "ENDPOINT_UNIT": "ng/mL", "OBS_VALUE": 169}

Working through the 2 compounds below one at a time, give Cmax for each.
1. CS(C)(=O)=NCCNc1nonc1/C(=N/O)Nc1ccc(F)c(Br)c1 [Example 1]
2. CCS(=N)(=O)NCCNc1nonc1C(=NO)Nc1ccc(F)c(Br)c1 (stereo not shown) [Example 7]

Ans.
1. 1500
2. 496

###

# ASSAY_NAME: Rat PK
# Format: in vivo
# SETUP_CONDITIONS: po, male SD rats, 5 mg/kg p.o., suspended in 0.5% methylcellulose in water, plasma
ASSAY_READOUT: AUC(0-inf)

{"COMPOUND": "CS(C)(=O)=NCCNc1nonc1/C(=N/O)Nc1ccc(F)c(Br)c1", "AUC(0-inf)": "4030 ng·h/mL"}
{"COMPOUND": "CS(C)(=O)=NCCNc1nonc1/C(=N/O)Nc1ccc(F)c(Cl)c1", "AUC(0-inf)": "1120 ng·h/mL"}
{"COMPOUND": "CCS(=N)(=O)NCCNc1nonc1C(=NO)Nc1ccc(F)c(Br)c1 (stereo not shown)", "AUC(0-inf)": "1450 ng·h/mL"}

What the record says about NS(=O)(=O)NCCNc1nonc1C(=NO)Nc1ccc(F)c(Br)c1 [Reference Compound 1, reference compound] : AUC(0-inf) is 924 ng·h/mL

###

For each entry below, report its log10 IC50 value.
# TEST_SYSTEM: IDO (Homo sapiens, UniProt P14902)
# Construct: endogenous in cells; host or cells: HeLa cells stimulated with recombinant human interferon-gamma
# Sequence (P14902 whole entry): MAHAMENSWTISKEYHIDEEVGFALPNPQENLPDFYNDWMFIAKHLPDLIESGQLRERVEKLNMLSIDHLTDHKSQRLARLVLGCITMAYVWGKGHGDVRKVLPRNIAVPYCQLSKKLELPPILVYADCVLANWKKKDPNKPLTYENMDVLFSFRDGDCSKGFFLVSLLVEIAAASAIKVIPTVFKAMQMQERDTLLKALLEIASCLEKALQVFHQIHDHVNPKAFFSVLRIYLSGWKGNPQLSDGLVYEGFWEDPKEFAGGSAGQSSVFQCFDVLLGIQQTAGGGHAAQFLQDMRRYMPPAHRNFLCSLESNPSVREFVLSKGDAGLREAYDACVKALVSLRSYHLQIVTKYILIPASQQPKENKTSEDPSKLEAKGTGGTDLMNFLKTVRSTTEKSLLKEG
# ASSAY_NAME: IDO Cell-Based LC/MS Assay
# SETUP_CONDITIONS: Hela cells, 100 ng/mL recombinant human interferon-gamma, 20 hours, LC/MS readout
In plain terms, each number is the log10 of measured IC50 in nM.

Use the examples below as a reference point.
{"MOLECULE": "CS(=N)(=O)NCCCNc1nonc1C(=NO)Nc1ccc(F)c(Br)c1 (stereo not shown) [Example 8]", "OBS_VALUE": 1.27}
{"MOLECULE": "O=S1(=NCCNc2nonc2/C(=N/O)Nc2ccc(F)c(Br)c2)CCCC1 [Example 5]", "OBS_VALUE": 2.29}
{"MOLECULE": "CS(=N)(=O)NCCNc1nonc1/C(=N/O)Nc1ccc(F)c(C#N)c1 (stereo not shown) [Example 13]", "OBS_VALUE": 2.49}
{"MOLECULE": "CCS(=N)(=O)NCCNc1nonc1/C(=N/O)Nc1cccc(C(F)(F)F)c1 (stereo not shown) [Example 16]", "OBS_VALUE": 2.47}
{"MOLECULE": "CN=S(C)(=O)NCCNc1nonc1C(=NO)Nc1ccc(F)c(Br)c1 (stereo not shown) [Example 11]", "OBS_VALUE": 1.60}
{"MOLECULE": "CS(=N)(=O)NCCNc1nonc1C(=NO)Nc1ccc(F)c(Br)c1 (stereo not shown) [Example 6]", "OBS_VALUE": 1.80}
{"MOLECULE": "CS(=N)(=O)NCCNc1nonc1/C(=N/O)Nc1ccc(F)c(C(F)(F)F)c1 (stereo not shown) [Example 14]", "OBS_VALUE": 1.30}
{"MOLECULE": "O=S1(=NCCNc2nonc2/C(=N/O)Nc2ccc(F)c(Br)c2)CCOCC1 [Example 3]", "OBS_VALUE": 2.18}

Working through the 6 molecules below one at a time, give log10 IC50 for each.
1. CC(CNc1nonc1/C(=N/O)Nc1ccc(F)c(Br)c1)NS(C)(=N)=O (stereo not shown) [Example 9]
2. CS(=N)(=O)NCCNc1nonc1/C(=N/O)Nc1cccc(C(F)(F)F)c1 (stereo not shown) [Example 15]
3. CS(=N)(=O)NCCNc1nonc1/C(=N/O)Nc1ccc(F)c(Cl)c1 (stereo not shown) [Example 12]
4. CC(CNS(C)(=N)=O)Nc1nonc1/C(=N/O)Nc1ccc(F)c(Br)c1 (stereo not shown) [Example 10]
5. CCS(=O)(CC)=NCCNc1nonc1/C(=N/O)Nc1ccc(F)c(Br)c1 [Example 2]
6. CCS(=N)(=O)NCCNc1nonc1C(=NO)Nc1ccc(F)c(Br)c1 (stereo not shown) [Example 7]

Ans.
1. 2.09
2. 1.73
3. 1.09
4. 2.39
5. 2.43
6. 0.82

Working through the 2 molecules below one at a time, give log10 IC50 for each.
1. O=S1(=NCCNc2nonc2/C(=N/O)Nc2ccc(F)c(Br)c2)CCCCC1 [Example 4]
2. CS(C)(=O)=NCCNc1nonc1/C(=N/O)Nc1ccc(F)c(Br)c1 [Example 1]

Ans.
2.68
1.73
